B1: Homeobox protein cut-like 1, residues 548 to 629; numbered along this chain, P39880 (parent)
chain: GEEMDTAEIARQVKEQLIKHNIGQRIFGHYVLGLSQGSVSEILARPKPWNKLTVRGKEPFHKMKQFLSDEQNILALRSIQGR

Variants of: B1
Experiment: abundance fitness (aPCA) (normalised: wild type 0, dead -1); higher = more abundant; growth selection in yeast, the domain comes from the species named
Conditions: Homo sapiens
Threshold check on abundance fitness: at or above -0.06 gives 1 (yes), strictly below gives 0 (no).

GEEMDTAEIARQVKEQLIKHNIGQSIFGHYVLGLSQGSVSEILARPKPWNKLTVRGKEPFHKMKQFLSDEQNILALRSIQGR [R25S]: 1 (yes)
GEEMDTAEIARQVKEQLIKHNIGQRIFGHYVLGLSQGSVSEILARPKPWNKLTVRGKEPFHKMKQRLSDEQNILALRSIQGR [F66R]: 0 (no)
GEEMDTAEIARQVKEQLIKHNIGQRIFGHYVLGLSQGSVSEILARPKPWNKLTVRGKEPFHKMKQFLSDEQNILALMSIQGR [R77M]: 0 (no)
GEEMDTAEIARQNKEQLIKHNIGQRIFGHYVLGLSQGSVSEILARPKPWNKLTVRGKEPFHKMKQFLSDEQNILALRSIQGR [V13N]: 0 (no)
GEEMDTAEIYRQVKEQLIKHNIGQRIFGHYVLGLSQGSVSEILARPKPWNKLTVRGKEPFHKMKQFLSDEQNILALRSIQGR [A10Y]: 0 (no)
GEEMDTAEIARQVKEQLIKHNIGQRIFGHYVLGLSQGSVSEILARPKPWNKFTVRGKEPFHKMKQFLSDEQNILALRSIQGR [L52F]: 0 (no)
GEEMDTAEIARQVKEQLIKHNIGGRIFGHYVLGLSQGSVSEILARPKPWNKLTVRGKEPFHKMKQFLSDEQNILALRSIQGR [Q24G]: 0 (no)
GEEMDTAEIARQVLEQLIKHNIGQRIFGHYVLGLSQGSVSEILARPKPWNKLTVRGKEPFHKMKQFLSDEQNILALRSIQGR [K14L]: 0 (no)

Pending variant:
**Query** Does GEEMDTAEIARQVKEQLIKHNIGQRIFGHYVLGLSQGGVSEILARPKPWNKLTVRGKEPFHKMKQFLSDEQNILALRSIQGR [S38G] have a reported abundance fitness of at least -0.06?
**Result** 1 (yes)
